# assay.target: recombinant human ALK5 (TGF-βR1) protein (Homo sapiens, UniProt P36897)
# Construct: purchased Life Technologies PR9075A
# assay.name: Biochemical ALK5 (TGF-βR1) assay to measure pKi (LANCE Ultra ULight kinase assay)
# experimental.setup: apparent pKi from pIC50 by Cheng-Prusoff, read-out: ALK5 pKi (converted)
observed.property: Ki

                                    compound         test_result
 0  Cc1cccc(-c2[nH]cnc2-c2ccc3ncc(-c4cccc(C(=O)OC5CCNCC5)c4)cc3c2)n1 [Compound 224]  0.0398 to 0.316 nM
 1  Cc1cccc(-c2[nH]cnc2-c2ccc3ncc(N4CCN(C)C(CC(=O)O)C4)cc3c2)n1 (centres unmarked) [Compound 688]  0.0398 to 0.316 nM
 2  CC(=O)N[C@H]1CC=C(c2cnc3ccc(-c4nc[nH]c4-c4cccc(C)n4)cc3c2)CC1 [Compound 691]         < 0.0316 nM
 3  Cc1cccc(-c2n[nH]cc2-c2ccc3ncc(N(C)C4CCNC4)cc3n2)n1 (racemic) [Compound 242]  0.0398 to 0.316 nM
 4  Cc1cccc(-c2n[nH]cc2-c2ccc3ncc(N4CC5CN(C(C)C)CC54)cc3n2)n1 (centres unmarked) [Compound 186]    0.398 to 3.16 nM
 5  Cc1cccc(-c2[nH]cnc2-c2ccc3ncc(-c4csc(C(=O)OCCNC5CNC5)c4)cc3c2)n1 [Compound 1235]  0.0398 to 0.316 nM
 6  Cc1cccc(-c2[nH]ncc2-c2ccc3ncc(C(=O)OCCCCN4CCCC4)cc3n2)n1 [Compound 146]  0.0398 to 0.316 nM
 7  Cc1cccc(-c2nnn(Cc3ccccc3)c2-c2ccc3ncc(N4CCNCC4)cc3n2)n1 [Compound 359]  0.0398 to 0.316 nM
 8  CCOC(=O)Cc1ccnc2ccc(-c3c[nH]nc3-c3cccc(C)n3)nc12 [Compound 855]  0.0398 to 0.316 nM
 9  CNCCn1cc(-c2cnc3ccc(-c4c[nH]nc4-c4cccc(C)n4)cc3c2)cn1 [Compound 589]         < 0.0316 nM
10  Cc1cccc(-c2nnn(Cc3ccccc3)c2-c2ccc3ncc(N4CCC(N(C)C)C4)cc3n2)n1 (racemic) [Compound 331]  0.0398 to 0.316 nM
11  CNCCn1cc(-c2cnc3ccc(-c4c(-c5cccc(C)n5)[nH]c5cccnc45)nc3c2)cn1 [Compound 165]  0.0398 to 0.316 nM
12  Cc1cccc(-c2[nH]cnc2-c2ccc3ncc(C4=CC[C@@H](NC(=O)[C@@H]5CCCN5)CC4)cc3c2)n1 [Compound 775]  0.0398 to 0.316 nM
13  Cc1cccc(-c2[nH]cnc2-c2ccc3ncc(-c4csc(C(=O)OC5CCNCC5)n4)cc3c2)n1 [Compound 1146]         < 0.0316 nM
14  Cc1cccc(-c2n[nH]cc2-c2ccc3ncc(N4CCN(C5(C(N)=O)CCCC5)CC4)cc3n2)n1 [Compound 528]    0.398 to 3.16 nM
15  Cc1cccc(-c2n[nH]cc2-c2ccc3nccc(-c4cn[nH]c4)c3c2)n1 [Compound 866]         < 0.0316 nM
16  Cc1cccc(-c2[nH]ncc2-c2ccc3ncc(C(=O)NN)cc3n2)n1 [Compound 247]  0.0398 to 0.316 nM

* * *

# Ki annotations
# assay.target: recombinant human ALK5 (TGF-βR1) protein (Homo sapiens, UniProt P36897)
# Construct: purchased Life Technologies PR9075A
# Sequence (P36897 34-503): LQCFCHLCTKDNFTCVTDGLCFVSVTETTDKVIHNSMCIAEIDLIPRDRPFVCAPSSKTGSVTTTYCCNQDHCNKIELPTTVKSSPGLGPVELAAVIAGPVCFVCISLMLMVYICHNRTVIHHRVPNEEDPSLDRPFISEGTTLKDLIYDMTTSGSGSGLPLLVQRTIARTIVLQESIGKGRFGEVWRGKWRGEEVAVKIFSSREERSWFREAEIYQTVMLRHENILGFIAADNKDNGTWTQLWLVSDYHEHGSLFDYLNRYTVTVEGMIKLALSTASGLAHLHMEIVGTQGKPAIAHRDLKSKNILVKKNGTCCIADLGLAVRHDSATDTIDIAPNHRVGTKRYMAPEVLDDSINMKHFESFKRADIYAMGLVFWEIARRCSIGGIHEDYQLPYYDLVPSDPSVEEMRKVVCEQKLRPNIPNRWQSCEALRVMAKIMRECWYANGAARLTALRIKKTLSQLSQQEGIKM
# assay.name: Biochemical ALK5 (TGF-βR1) assay to measure pKi (LANCE Ultra ULight kinase assay)
# experimental.setup: apparent pKi from pIC50 by Cheng-Prusoff, read-out: ALK5 pKi (converted)
observed.property: Ki

                                    molecule         test_result
 0  Cc1cccc(-c2n[nH]cc2-c2ccc3ncc(NCCN4CCCC4)cc3n2)n1 [Compound 597]         < 0.0316 nM
 1  Cc1cccc(-c2n[nH]cc2-c2ccc3ncc(N4CCNC(CO)C4)cc3n2)n1 (stereo not shown) [Compound 66]  0.0398 to 0.316 nM
 2  Cc1cccc(-c2[nH]ncc2-c2ccc3nccc(C(=O)O)c3c2)n1 [Compound 1064]     3.98 to 31.6 nM
 3  Cc1cccc(-c2[nH]cnc2-c2ccc3ncc(N4CC(CN)C4)cc3c2)n1 [Compound 68]  0.0398 to 0.316 nM
 4  Cc1cccc(-c2[nH]cnc2-c2ccc3ncc(-c4cccc(C(=O)OCC5CNC5)n4)cc3c2)n1 [Compound 1044]         < 0.0316 nM
 5  Cc1cccc(-c2[nH]cnc2-c2ccc3ncc(-c4cncc(C(=O)O[C@H]5CCN(C)C5)c4)cc3c2)n1 [Compound 704]  0.0398 to 0.316 nM
 6  Cc1cccc(-c2[nH]cnc2-c2ccc3ncc(C(=O)OCCCN4C[C@@H](C)N[C@@H](C)C4)cc3c2)n1 [Compound 898]  0.0398 to 0.316 nM
 7  Cc1cccc(-c2[nH]cnc2-c2ccc3ncc(-c4csc(C(=O)O)n4)cc3c2)n1 [Compound 1152]         < 0.0316 nM
 8  Cc1cccc(-c2[nH]cnc2-c2ccc3ncc(NCCN4CCC[C@H](N)C4)cc3c2)n1 [Compound 623]  0.0398 to 0.316 nM
 9  Cc1cccc(-c2[nH]cnc2-c2ccc3ncc(Br)cc3c2)n1 [Compound 1190]  0.0398 to 0.316 nM
10  Cc1cccc(-c2[nH]cnc2-c2ccc3ncc(-c4nc(C(=O)OCCN5CC[C@@H](N)C5)cs4)cc3c2)n1 [Compound 1246]  0.0398 to 0.316 nM
11  Cc1nc(-c2n[nH]cc2-c2ccc3ncc(-c4ccc5c(n4)CCNC5)cc3n2)ccc1F [Compound 34]         < 0.0316 nM
12  Cc1cccc(-c2[nH]cnc2-c2ccc3ncc(-c4cc(C(=O)OCCN5CCNCC5)cs4)cc3c2)n1 [Compound 1141]  0.0398 to 0.316 nM
13  Cc1cccc(-c2[nH]cnc2-c2ccc3ncc(-c4ccc(C(=O)O[C@H]5CCN(C)C5)cc4)cc3c2)n1 [Compound 545]  0.0398 to 0.316 nM
14  Cc1cccc(-c2[nH]cnc2-c2ccc3ncc(-c4csc(C(=O)O[C@@H]5CCNC5)c4)cc3c2)n1 [Compound 749]         < 0.0316 nM
15  COC(Cc1ccnc2ccc(-c3c[nH]nc3-c3cccc(C)n3)nc12)OC [Compound 860]    0.398 to 3.16 nM
16  Cc1cccc(-c2n[nH]cc2-c2ccc3ncc(-c4cn5c(n4)CNCC5)cc3n2)n1 [Compound 75]         < 0.0316 nM
17  Cc1nc(-c2n[nH]cc2-c2ccc3ncc(NCCN4CCCC4(C)C)cc3n2)ccc1F [Compound 526]         < 0.0316 nM
18  Cc1cccc(-c2n[nH]cc2-c2ccc3nccc(C(=O)NCCN4CCOCC4)c3n2)n1 [Compound 802]  0.0398 to 0.316 nM
19  Cc1cccc(-c2[nH]cnc2-c2ccc3ncc(C(=O)O[C@H]4C[C@@H](N)C4)cc3c2)n1 [Compound 759]  0.0398 to 0.316 nM
20  CNCCn1cc(-c2cnc3ccc(-c4nc[nH]c4-c4ccc(F)c(C)n4)cc3c2)cn1 [Compound 401]         < 0.0316 nM
21  Cc1cccc(-c2[nH]cnc2-c2ccc3ncc(C4=CCCCC4)cc3c2)n1 [Compound 147]  0.0398 to 0.316 nM

* * *

# assay.target: recombinant human ALK5 (TGF-βR1) protein (Homo sapiens)
# Construct: purchased Life Technologies PR9075A
# assay.name: Biochemical ALK5 (TGF-βR1) assay to measure pKi (LANCE Ultra ULight kinase assay)
# experimental.setup: apparent pKi from pIC50 by Cheng-Prusoff, read-out: ALK5 pKi (converted)
observed.property: Ki

>>> print(df.to_string())
                                   compound         test_result
0  Cc1cccc(-c2nc3ccccn3c2-c2ccc3ncc(-c4nc5n(n4)CCNC5)cc3n2)n1  0.0398 to 0.316 nM
1  Cc1cccc(-c2[nH]cnc2-c2ccc3ncc(NC(=O)C4CC(N)C4)cc3c2)n1 (stereo not drawn)  0.0398 to 0.316 nM
2  Cc1cccc(-c2[nH]cnc2-c2ccc3ncc(-c4ccnc(C(=O)O)c4)cc3c2)n1         < 0.0316 nM
3  Cc1cccc(-c2n[nH]cc2-c2ccc3nccc(CN(C)CCCN4CCOCC4)c3n2)n1  0.0398 to 0.316 nM
4  Cc1cccc(-c2[nH]ncc2-c2ccc3nccc(C(=O)O[C@H]4CC[C@](C)(N)CC4)c3c2)n1     3.98 to 31.6 nM
5  Cc1cccc(-c2[nH]cnc2-c2ccc3ncc(N(C)CC4CNC4)cc3c2)n1  0.0398 to 0.316 nM
6  COC(=O)N1CCc2nnc(-c3cnc4ccc(-c5c[nH]nc5-c5ccc(F)c(C)n5)nc4c3)cc2C1  0.0398 to 0.316 nM
7  Cc1cccc(-c2nc3ccccn3c2-c2ccc3ncc(-c4cc5n(n4)CCNC5)cc3n2)n1         < 0.0316 nM
8  Cc1cccc(-c2[nH]ncc2-c2ccc3ncc(C(=O)OC[C@H]4CCCNC4)cc3c2)n1  0.0398 to 0.316 nM
